Provide the recorded half-life at 1 μM for the entries that follow.
Procedure Summary: Assay C: Metabolic stability in human liver microsomes (Human MST)
Type: in vitro ADME
Measurement Parameters: pooled human liver microsomes, pH 7.6; human liver microsomes 1 mg/mL, compound 1 μM, 37° C., NADPH; read-out: Human MST t1/2
Just the number please, in min, no unit attached.

Q) Reported half-life at 1 μM, compound CCN(C(=O)c1cccc(F)c1-n1nccn1)[C@@H](C)COc1ncc(Br)cc1F : ____
A) 67

Q) What does the record list as half-life at 1 μM for CCN(C(=O)c1ccccc1-c1cnc(OC)nc1)[C@@H](C)COc1ccc(C(F)(F)F)cn1 ?
A) 12

Q) // query half-life at 1 μM value for entry CCN(C(=O)c1cc(OC)ccc1-n1nccn1)[C@@H](C)COc1ccc(C(F)(F)F)cn1
A) 16

Q) Need half-life at 1 μM, item CCN(C(=O)c1ccccc1-c1cnc(C)nc1)[C@@H](C)COc1ccc(C(F)(F)F)cn1
A) 17
